FYI, the data here is from patent US20140274782A1.

Entries and their Relative to UNC0638 UNC Heavy
- target: T1, G9a and GLP (Homo sapiens, UniProt Q96KQ7+Q9H9B1)
- T1 sequence (Q96KQ7 2-1210 limits assumed): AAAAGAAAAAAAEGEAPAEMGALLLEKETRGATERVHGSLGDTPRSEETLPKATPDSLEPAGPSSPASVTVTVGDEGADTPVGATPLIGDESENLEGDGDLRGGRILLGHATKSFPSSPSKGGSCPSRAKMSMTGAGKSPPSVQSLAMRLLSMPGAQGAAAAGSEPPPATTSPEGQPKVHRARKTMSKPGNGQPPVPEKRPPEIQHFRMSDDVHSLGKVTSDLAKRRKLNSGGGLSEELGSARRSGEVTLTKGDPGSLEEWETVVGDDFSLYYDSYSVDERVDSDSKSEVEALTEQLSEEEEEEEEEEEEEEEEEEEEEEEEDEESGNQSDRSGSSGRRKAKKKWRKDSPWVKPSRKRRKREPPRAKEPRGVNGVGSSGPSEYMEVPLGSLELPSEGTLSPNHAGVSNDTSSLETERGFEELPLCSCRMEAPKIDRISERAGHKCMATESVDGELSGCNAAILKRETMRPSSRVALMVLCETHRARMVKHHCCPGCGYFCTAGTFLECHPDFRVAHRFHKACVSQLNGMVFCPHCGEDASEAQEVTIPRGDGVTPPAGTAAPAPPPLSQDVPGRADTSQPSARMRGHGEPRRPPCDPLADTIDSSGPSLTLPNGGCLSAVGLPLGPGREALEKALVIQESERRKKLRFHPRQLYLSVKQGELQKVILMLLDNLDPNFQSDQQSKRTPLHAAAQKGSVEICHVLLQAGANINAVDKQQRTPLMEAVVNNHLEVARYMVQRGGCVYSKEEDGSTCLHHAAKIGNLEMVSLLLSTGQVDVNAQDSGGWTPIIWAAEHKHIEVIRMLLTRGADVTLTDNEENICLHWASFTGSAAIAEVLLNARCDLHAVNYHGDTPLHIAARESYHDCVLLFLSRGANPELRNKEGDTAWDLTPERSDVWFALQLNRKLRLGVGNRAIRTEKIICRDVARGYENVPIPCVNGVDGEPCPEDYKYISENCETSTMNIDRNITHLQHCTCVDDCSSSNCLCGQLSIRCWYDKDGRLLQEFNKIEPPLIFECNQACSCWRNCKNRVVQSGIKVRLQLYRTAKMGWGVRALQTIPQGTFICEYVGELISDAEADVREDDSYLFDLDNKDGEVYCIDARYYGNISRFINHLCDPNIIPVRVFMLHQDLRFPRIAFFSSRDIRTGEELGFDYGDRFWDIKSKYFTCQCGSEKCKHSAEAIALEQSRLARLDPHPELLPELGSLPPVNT
- T1 sequence (Q9H9B1 2-1298 limits assumed): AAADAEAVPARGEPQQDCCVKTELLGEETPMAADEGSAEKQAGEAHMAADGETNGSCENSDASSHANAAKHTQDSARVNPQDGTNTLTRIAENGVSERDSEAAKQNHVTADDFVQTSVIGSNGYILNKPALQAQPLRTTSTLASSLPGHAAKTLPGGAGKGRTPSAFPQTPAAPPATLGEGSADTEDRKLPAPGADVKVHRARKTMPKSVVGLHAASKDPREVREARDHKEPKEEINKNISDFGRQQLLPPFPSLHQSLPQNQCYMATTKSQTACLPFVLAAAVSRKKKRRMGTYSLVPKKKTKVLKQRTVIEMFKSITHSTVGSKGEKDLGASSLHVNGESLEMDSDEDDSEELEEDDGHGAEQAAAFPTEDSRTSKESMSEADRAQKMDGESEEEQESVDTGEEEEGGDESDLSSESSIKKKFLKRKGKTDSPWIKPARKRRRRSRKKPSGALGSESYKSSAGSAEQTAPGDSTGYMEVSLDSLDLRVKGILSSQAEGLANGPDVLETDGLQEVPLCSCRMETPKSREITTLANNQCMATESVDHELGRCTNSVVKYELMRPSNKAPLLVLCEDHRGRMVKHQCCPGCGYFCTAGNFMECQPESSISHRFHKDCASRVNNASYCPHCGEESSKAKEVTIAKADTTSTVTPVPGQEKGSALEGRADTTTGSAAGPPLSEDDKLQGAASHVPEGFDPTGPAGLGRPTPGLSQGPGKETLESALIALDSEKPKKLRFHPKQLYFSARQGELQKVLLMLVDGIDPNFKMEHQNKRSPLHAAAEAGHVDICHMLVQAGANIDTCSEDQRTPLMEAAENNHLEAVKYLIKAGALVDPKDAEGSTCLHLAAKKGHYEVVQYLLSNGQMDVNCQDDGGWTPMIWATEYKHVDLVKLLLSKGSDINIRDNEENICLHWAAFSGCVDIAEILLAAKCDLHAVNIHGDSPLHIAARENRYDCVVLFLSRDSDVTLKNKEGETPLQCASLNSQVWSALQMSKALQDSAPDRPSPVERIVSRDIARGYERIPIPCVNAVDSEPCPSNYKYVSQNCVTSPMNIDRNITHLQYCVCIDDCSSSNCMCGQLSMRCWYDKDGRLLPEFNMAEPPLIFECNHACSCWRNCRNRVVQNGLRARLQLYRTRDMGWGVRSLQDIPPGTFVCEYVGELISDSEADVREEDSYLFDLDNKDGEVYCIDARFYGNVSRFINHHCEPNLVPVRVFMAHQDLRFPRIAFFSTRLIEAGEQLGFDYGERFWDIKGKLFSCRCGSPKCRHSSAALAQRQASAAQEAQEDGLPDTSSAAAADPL
- measurement-protocol: Triple SILAC pull-down after UNC0638 treatment of 293T cells, DMSO/UNC0638 ratio of protein captured by 3×MBT;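 note: mass spectrometry (Q-Exactive) SILAC quantitation, DMSO/UNC0638 ratio computed after subtracting 3×MBTD355N mutant pull-down background, only proteins with at least twofold 3×MBT over mutant signal considered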
- Format: cell-based
- Parameters: cells were treated for 24 hours with UNC0638 at 2.5 μM or DMSO vehicle control; endogenous in cells; host or cells: HEK 293T
- experimental-setup: SILAC ratio DMSO/UNC0638 of protein pulled down with 3xMBT; UNC0638 in heavy SILAC media
Your answer should be a plain number; it is taken to be in log base 2.

Use these answered entries as a reference point.
[
  {
    "molecule": "TRMT61A (protein, UniProt Q96FX7 2-289, looked up) tRNA …: SFVAYEELIKEGDTAILSLGHGAMVAVRVQRGAQTQTRHGVLRHSVDLIGRPFGSKVTCGRGGWVYVLHPTPELWTLNLPHRTQILYSTDIALITMMLELRPGSVVCESGTGSGSVSHAIIRTIAPTGHLHTVEFHQQRAEKAREEFQEHRVGRWVTVRTQDVCRSGFGVSHVADAVFLDIPSPWEAVGHAWDALKVEGGRFCSFSPCIEQVQRTCQALAARGFSELSTLEVLPQVYNVRTVSLPPPDLGTGTDGPAGSDTSPFRSGTPMKEAVGHTGYLTFATKTPG",
    "Relative to UNC0638 UNC Heavy / log base 2": "−0.07"
  },
  {
    "molecule": "RBM3 (protein, UniProt P98179 1-157, looked up) RNA-binding protein 3: MSSEEGKLFVGGLNFNTDEQALEDHFSSFGPISEVVVVKDRETQRSRGFGFITFTNPEHASVAMRAMNGESLDGRQIRVDHAGKSARGTRGGGFGAHGRGRSYSRGGGDQGYGSGRYYDSRPGGYGYGYGRSRDYNGRNQGGYDRYSGGNYRDNYDN",
    "Relative to UNC0638 UNC Heavy / log base 2": 0.24
  },
  {
    "molecule": "CNBP (protein, UniProt P62633 2-177, looked up) CCHC-type zinc finger nucleic …: SSNECFKCGRSGHWARECPTGGGRGRGMRSRGRGGFTSDRGFQFVSSSLPDICYRCGESGHLAKDCDLQEDACYNCGRGGHIAKDCKEPKREREQCCYNCGKPGHLARDCDHADEQKCYSCGEFGHIQKDCTKVKCYRCGETGHVAINCSKTSEVNCYRCGESGHLARECTIEATA",
    "Relative to UNC0638 UNC Heavy / log base 2": 0.51
  }
]

Let me know recorded Relative to UNC0638 UNC Heavy for CACYBP (protein, UniProt Q9HB71 2-228, looked up) Calcyclin-binding protein: ASEELQKDLEEVKVLLEKATRKRVRDALTAEKSKIETEIKNKMQQKSQKKAELLDNEKPAAVVAPITTGYTVKISNYGWDQSDKFVKIYITLTGVHQVPTENVQVHFTERSFDLLVKNLNGKSYSMIVNNLLKPISVEGSSKKVKTDTVLILCRKKVENTRWDYLTQVEKECKEKEKPSYDTETDPSEGLMNVLKKIYEDGDDDMKRTINKAWVESREKQAKGDTEF , thanks.
0.29

Let me know recorded Relative to UNC0638 UNC Heavy for ALKBH5 (protein, UniProt Q6P6C2 2-394, looked up) RNA demethylase ALKBH5: AAASGYTDLREKLKSMTSRDNYKAGSREAAAAAAAAVAAAAAAAAAAEPYPVSGAKRKYQEDSDPERSDYEEQQLQKEEEARKVKSGIRQMRLFSQDECAKIEARIDEVVSRAEKGLYNEHTVDRAPLRNKYFFGEGYTYGAQLQKRGPGQERLYPPGDVDEIPEWVHQLVIQKLVEHRVIPEGFVNSAVINDYQPGGCIVSHVDPIHIFERPIVSVSFFSDSALCFGCKFQFKPIRVSEPVLSLPVRRGSVTVLSGYAADEITHCIRPQDIKERRAVIILRKTRLDAPRLETKSLSSSVLPPSYASDRLSGNNRDPALKPKRSHRKADPDAAHRPRILEMDKEENRRSVLLPTHRRRGSFSSENYWRKSYESSEDCSEAAGSPARKVKMRRH , thanks.
0.29

Let me know recorded Relative to UNC0638 UNC Heavy for NTHL1 (protein, UniProt P78549 23-304, looked up) Endonuclease III-like protein …: GCREEPGPLRRREAAAEARKSHSPVKRPRKAQRLRVAYEGSDSEKGEGAEPLKVPVWEPQDWQQQLVNIRAMRNKKDAPVDHLGTEHCYDSSAPPKVRRYQVLLSLMLSSQTKDQVTAGAMQRLRARGLTVDSILQTDDATLGKLIYPVGFWRSKVKYIKQTSAILQQHYGGDIPASVAELVALPGVGPKMAHLAMAVAWGTVSGIAVDTHVHRIANRLRWTKKATKSPEETRAALEEWLPRELWHEINGLLVGFGQQTCLPVHPRCHACLNQALCPAAQGL , thanks.
0.72
